# measured.target: Human EphA2 (ephrin receptor A2) on cells (human, UniProt P29317 25-976)
# Sequence (P29317 25-976): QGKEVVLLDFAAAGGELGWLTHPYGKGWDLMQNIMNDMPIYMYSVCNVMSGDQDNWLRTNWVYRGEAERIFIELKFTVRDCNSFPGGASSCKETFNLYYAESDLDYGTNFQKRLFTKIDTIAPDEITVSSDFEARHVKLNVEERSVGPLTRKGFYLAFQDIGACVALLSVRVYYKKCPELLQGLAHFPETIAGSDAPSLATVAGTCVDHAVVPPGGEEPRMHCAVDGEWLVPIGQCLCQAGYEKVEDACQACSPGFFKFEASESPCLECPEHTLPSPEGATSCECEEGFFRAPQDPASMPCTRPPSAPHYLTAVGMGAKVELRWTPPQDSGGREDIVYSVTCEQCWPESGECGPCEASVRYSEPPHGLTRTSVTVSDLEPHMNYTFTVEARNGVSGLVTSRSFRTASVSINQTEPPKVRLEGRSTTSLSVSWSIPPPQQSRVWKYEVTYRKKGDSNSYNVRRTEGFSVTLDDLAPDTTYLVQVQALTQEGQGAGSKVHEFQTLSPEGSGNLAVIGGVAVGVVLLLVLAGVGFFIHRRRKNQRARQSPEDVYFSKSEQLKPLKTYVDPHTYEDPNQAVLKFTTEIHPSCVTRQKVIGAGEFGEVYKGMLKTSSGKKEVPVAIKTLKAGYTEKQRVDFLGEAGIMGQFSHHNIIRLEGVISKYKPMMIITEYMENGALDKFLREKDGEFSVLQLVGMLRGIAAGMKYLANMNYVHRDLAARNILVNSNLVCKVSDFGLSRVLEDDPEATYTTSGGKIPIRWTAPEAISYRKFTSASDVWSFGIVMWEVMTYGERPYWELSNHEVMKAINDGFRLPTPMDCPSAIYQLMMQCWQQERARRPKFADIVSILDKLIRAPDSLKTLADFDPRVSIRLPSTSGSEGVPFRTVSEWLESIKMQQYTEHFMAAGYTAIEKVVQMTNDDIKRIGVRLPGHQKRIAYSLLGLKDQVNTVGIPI
# method.summary: cell-based or functional assay
For each of the binders below, state its ADCC - EC50 (nM), Trial 2, A549.
Answers are plain numbers, in nM.

Below, 3 binders whose answers are already recorded.
{"binder": "AB-010699 (antibody, V domains shown) VH: QVQLQQWGAGLLKPSETLSLTCAVYGGSFSGYYWSWIRQPPGKGLEWIGEINHRGSINYNNYNPSLKSRVTISVDTSKNQFSLKLSSVTAADTAVYYCAKPLRPHCINGVCYSGDAFDIWGQGTMVTVAS VL: SYVLTQPPSVSVAPGQTARITCGGNNIGYKNVHWYQQKPGQAPVLVVYDDSDRPSGIPERFSGSNSGNTATLTISRVEAGDEADYYCQVWDHSSDHVVFGGGTKLTVL", "ADCC - EC50 (nM), Trial 2, A549": 0.0058}
{"binder": "AB-010676 (antibody, V domains shown) VH: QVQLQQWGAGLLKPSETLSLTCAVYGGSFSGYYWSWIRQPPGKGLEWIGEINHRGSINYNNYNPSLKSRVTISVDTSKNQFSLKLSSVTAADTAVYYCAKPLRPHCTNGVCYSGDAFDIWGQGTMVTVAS VL: SYVLTQPPSVSVAPGQTARITCRGNNIGYKNVHWYQQKPGQAPVLVVYDDSDRPSGIPEQFSGSNSGNTATLTISRVEAGDEADYYCQVWDSSSDHVVFGGGTKLTVL", "ADCC - EC50 (nM), Trial 2, A549": 0.039}
{"binder": "AB-010681 (antibody, V domains shown) VH: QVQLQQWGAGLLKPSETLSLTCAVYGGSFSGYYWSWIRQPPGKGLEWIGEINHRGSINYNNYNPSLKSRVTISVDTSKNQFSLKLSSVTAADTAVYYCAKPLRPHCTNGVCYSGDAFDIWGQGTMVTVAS VL: SYVLTQPPSVSVAPGQTARITCGGNNIGYKNVHWYQQKPGQAPVLVVYDDSDRPSGIPEQFSGSNSGNTATLTISRVEAGDEADYYCQVWDHSSDHVVFGGGTKLTVL", "ADCC - EC50 (nM), Trial 2, A549": 0.0079}

Pending binder:
Please look up its ADCC - EC50 (nM), Trial 2, A549: AB-010667 (antibody, V domains shown) VH: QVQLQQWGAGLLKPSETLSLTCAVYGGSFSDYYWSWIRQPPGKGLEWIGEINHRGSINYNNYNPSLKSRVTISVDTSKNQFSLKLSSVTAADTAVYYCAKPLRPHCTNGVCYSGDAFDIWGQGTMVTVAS VL: SYVLTQPPSVSVAPGQTARITCGGNNIGYKNVHWYQQKPGQAPVLVVYDDSDRPSGIPEQFSGSNSGNTATLTISRVEAGDEADYYCQVWDHSSDHVVFGGGTKLTVL
0.012
